RUN DESCRIPTION: Cytotoxicity against HEK293A cells assessed as cell viability at 1600 ug/ml after 44 hrs by MTT assay
Format: cell-based
COND: human, hek293-a
ATTRIBUTE MEASURED: Activity

COMPOUND STRUCTURE STRING: CCN1C[C@]2(COC)CC[C@H](OC)[C@]34C1[C@H]([C@H](OC)[C@H]23)[C@]1(OC(C)=O)[C@H]2[C@@H](OC(=O)c3ccccc3)[C@](O)(C[C@H]24)[C@@H](OC)[C@@H]1O
ATTRIBUTE MEASURED: Activity
VALUE OBSERVED: Toxic
//
COMPOUND STRUCTURE STRING: C=C1[C@H]2C[C@@]3([C@@H]1O)[C@@H](CC2=O)[C@@]12C4[C@@H]3C[C@@H]1[C@@](C)(CC[C@@H]2O)CN4CC
ATTRIBUTE MEASURED: Activity
VALUE OBSERVED: Toxic
//
COMPOUND STRUCTURE STRING: CCN1C[C@@]2(COC)[C@H]3[C@@H](OC)[C@H]4C1[C@]3([C@@H](OC)C[C@H]2OC(C)=O)[C@@H]1C[C@@]2(O)[C@H](OC(=O)c3ccccc3)[C@@H]1[C@]4(OC(C)=O)[C@@H](O)[C@@H]2OC
ATTRIBUTE MEASURED: Activity
VALUE OBSERVED: Toxic
//
COMPOUND STRUCTURE STRING: CCN1C[C@]2(COC)[C@H](O)C[C@@H](OC)[C@@]34[C@@H]5C[C@@]6(O)[C@H](OC(=O)c7ccccc7)[C@@H]5[C@@](OC(C)=O)([C@@H]([C@H](OC)[C@H]23)[C@H]14)[C@@H](O)[C@@H]6OC
ATTRIBUTE MEASURED: Activity
VALUE OBSERVED: Toxic

###

Test system: A549
RUN DESCRIPTION: Induction of apoptosis in human A549 cells assessed as loss in mitochondrial membrane potential after 24 hrs by JC-1 dye-based fluorescence microscopic analysis
Type: functional, cell-based

COMPOUND STRUCTURE STRING: C=C1[C@H]2C[C@@]3([C@@H]1O)[C@@H](CC2=O)[C@@]12C4[C@@H]3C[C@@H]1[C@@](C)(CC[C@@H]2O)CN4CC
Activity: Dose-dependent effect
//
COMPOUND STRUCTURE STRING: CCN1C[C@]2(COC)CC[C@H](OC)[C@]34C1[C@H]([C@H](OC)[C@H]23)[C@]1(OC(C)=O)[C@H]2[C@@H](OC(=O)c3ccccc3)[C@](O)(C[C@H]24)[C@@H](OC)[C@@H]1O
Activity: Dose-dependent effect
//
COMPOUND STRUCTURE STRING: CCN1C[C@]2(COC)[C@H](O)C[C@@H](OC)[C@@]34[C@@H]5C[C@@]6(O)[C@H](OC(=O)c7ccccc7)[C@@H]5[C@@](OC(C)=O)([C@@H]([C@H](OC)[C@H]23)[C@H]14)[C@@H](O)[C@@H]6OC
Activity: Dose-dependent effect
//
COMPOUND STRUCTURE STRING: CCN1C[C@@]2(COC)[C@H]3[C@@H](OC)[C@H]4C1[C@]3([C@@H](OC)C[C@H]2OC(C)=O)[C@@H]1C[C@@]2(O)[C@H](OC(=O)c3ccccc3)[C@@H]1[C@]4(OC(C)=O)[C@@H](O)[C@@H]2OC
Activity: Dose-dependent effect
